Molecular target: HLA-DR DRB1*0301 (DR3) (Homo sapiens, UniProt P01903+P01911, A100K/A102G/A103R/A169T/F55Y/I96L/K41T/L162R/M171V/P40S/Q125H/Q178H/Q39Y/R42S/S66N/T106N/T262R/W38E/Y61H)
Sequence (P01903 26-254 limits assumed, other chains not shown): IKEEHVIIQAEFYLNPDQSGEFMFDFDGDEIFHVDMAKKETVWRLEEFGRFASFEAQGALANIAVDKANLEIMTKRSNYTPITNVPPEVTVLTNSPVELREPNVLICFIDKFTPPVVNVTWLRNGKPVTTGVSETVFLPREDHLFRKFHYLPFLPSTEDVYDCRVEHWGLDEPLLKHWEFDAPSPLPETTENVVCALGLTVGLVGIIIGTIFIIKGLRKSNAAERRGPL
Assay: biochemical
Type: binding
pIC50: −log10 of the molar value.
experimentalReadout: pIC50

Param item = CC[C@H](C)[C@H](NC(=O)[C@H](Cc1c[nH]c2ccccc12)NC(=O)[C@@H](NC(=O)[C@@H](NC(=O)[C@H](CO)NC(=O)[C@H](CC(C)C)NC(=O)[C@@H](N)[C@@H](C)O)C(C)C)[C@@H](C)O)C(=O)NCC(=O)N[C@@H](C)C(=O)N[C@@H](C)C(=O)N1CCC[C@H]1C(=O)N[C@@H](CC(C)C)C(=O)N[C@H](C(=O)N[C@@H](CC(C)C)C(=O)N[C@@H](CO)C(=O)O)[C@@H](C)CC ; retrieve measured pIC50.
< 4.09

Param item = CC[C@H](C)[C@H](NC(=O)[C@@H]1CCCN1C(=O)[C@H](CC(N)=O)NC(=O)[C@@H](N)Cc1c[nH]c2ccccc12)C(=O)N[C@@H](CC(C)C)C(=O)N[C@@H](CC(C)C)C(=O)N[C@@H](Cc1c[nH]c2ccccc12)C(=O)N[C@@H](CCC(N)=O)C(=O)N1CCC[C@H]1C(=O)N[C@H](C(=O)N1CCC[C@H]1C(=O)N[C@H](C(=O)N[C@@H](Cc1c[nH]cn1)C(=O)N[C@H](C(=O)N[C@H](C(=O)O)C(C)C)[C@@H](C)O)C(C)C)[C@@H](C)CC ; retrieve measured pIC50.
< 4.09

Param item = CC[C@H](C)[C@H](NC(=O)[C@H](CCC(=O)O)NC(=O)[C@H](CC(C)C)NC(=O)[C@H](C)NC(=O)[C@H](CO)NC(=O)[C@H](CO)NC(=O)[C@H](CC(C)C)NC(=O)[C@H](CCC(=O)O)NC(=O)[C@H](Cc1c[nH]cn1)NC(=O)[C@H](CC(C)C)NC(=O)[C@H](CCCCN)NC(=O)[C@H](CCCNC(=N)N)NC(=O)[C@@H]1CCCN1)C(=O)N1CCC[C@H]1C(=O)N[C@@H](Cc1ccc(O)cc1)C(=O)O ; retrieve measured pIC50.
4.79

====

Biological target: HLA-DR DRB4*0101 (DR53) (Homo sapiens, UniProt P01903+P13762, G164S)
Assay: biochemical
Type: binding
Settings: DRB4 *0101
experimentalReadout: IC50

Please review the following examples before continuing.
CC(C)C[C@H](NC(=O)[C@H](CCC(=O)O)NC(=O)[C@H](CCCCN)NC(=O)[C@H](C)NC(=O)[C@H](CC(C)C)NC(=O)[C@@H](NC(=O)[C@H](CO)NC(=O)[C@H](CCCNC(=N)N)NC(=O)[C@H](CC(=O)O)NC(=O)[C@H](CC(C)C)NC(=O)[C@H](Cc1c[nH]c2ccccc12)NC(=O)[C@H](Cc1ccccc1)NC(=O)[C@H](Cc1ccccc1)NC(=O)[C@H](CC(C)C)NC(=O)[C@@H](N)CC(C)C)C(C)C)C(=O)O; 7.5 nM
CSCC[C@H](NC(=O)[C@@H](NC(=O)[C@H](CCCCN)NC(=O)[C@@H](NC(=O)[C@H](C)NC(=O)[C@H](CC(=O)O)NC(=O)[C@@H](N)[C@@H](C)O)C(C)C)C(C)C)C(=O)N[C@@H](CC(=O)O)C(=O)N[C@@H](CC(C)C)C(=O)N1CCC[C@H]1C(=O)N[C@H](C(=O)N[C@@H](CCC(N)=O)C(=O)N[C@@H](CCC(=O)O)C(=O)N1CCC[C@H]1C(=O)N[C@@H](C)C(=O)O)[C@@H](C)O; 747 nM
CC[C@H](C)[C@H](NC(=O)[C@H](Cc1c[nH]cn1)NC(=O)[C@H](CCSC)NC(=O)[C@H](CCCCN)NC(=O)[C@@H](NC(=O)[C@H](CCCCN)NC(=O)[C@H](CCC(N)=O)NC(=O)[C@@H](NC(=O)[C@H](CO)NC(=O)[C@H](Cc1ccccc1)NC(=O)[C@H](CC(N)=O)NC(=O)CNC(=O)[C@@H](N)[C@@H](C)O)[C@@H](C)O)C(C)C)C(=O)N[C@@H](Cc1c[nH]cn1)C(=O)N[C@@H](CO)C(=O)O; 508 nM
CC(C)C[C@H](NC(=O)CNC(=O)[C@H](Cc1ccccc1)NC(=O)[C@H](CCC(=O)O)NC(=O)[C@H](CCCCN)NC(=O)[C@@H](N)Cc1c[nH]c2ccccc12)C(=O)N[C@@H](CC(=O)O)C(=O)N[C@@H](CO)C(=O)N[C@H](C(=O)N[C@@H](CCC(=O)O)C(=O)N[C@@H](CC(C)C)C(=O)N[C@@H](C)C(=O)N[C@@H](Cc1c[nH]cn1)C(=O)N[C@@H](Cc1ccc(O)cc1)C(=O)N[C@@H](CC(=O)O)C(=O)O)C(C)C; 5920 nM

Here is another compound to look at.
Param item = CC(C)C[C@H](NC(=O)CNC(=O)[C@H](CC(N)=O)NC(=O)[C@@H](N)Cc1ccc(O)cc1)C(=O)N[C@@H](CC(C)C)C(=O)N1CCC[C@H]1C(=O)N1CCC[C@H]1C(=O)N[C@@H](Cc1ccc(O)cc1)C(=O)N[C@@H](C)C(=O)N[C@@H](CO)C(=O)N[C@@H](CS)C(=O)N[C@@H](Cc1c[nH]cn1)C(=O)N[C@@H](CC(C)C)C(=O)N[C@H](C(=O)N[C@@H](CCC(=O)O)C(=O)O)[C@@H](C)O ; retrieve measured IC50.
> 10900 nM

====

Target: HLA-DR DRB5*0101 (DR51) (Homo sapiens, UniProt P01903+Q30154)
Test: biochemical
Assay type: binding
Conditions: DRB5 *0101
experimentalReadout: IC50

Form field: IC50 recorded for CC[C@H](C)[C@H](NC(=O)[C@@H]1CCCN1C(=O)[C@H](CC(N)=O)NC(=O)[C@@H](N)Cc1c[nH]c2ccccc12)C(=O)N[C@@H](CC(C)C)C(=O)N[C@@H](CC(C)C)C(=O)N[C@@H](Cc1c[nH]c2ccccc12)C(=O)N[C@@H](CCC(N)=O)C(=O)N1CCC[C@H]1C(=O)N[C@H](C(=O)N1CCC[C@H]1C(=O)N[C@H](C(=O)N[C@@H](Cc1c[nH]cn1)C(=O)N[C@H](C(=O)N[C@H](C(=O)O)C(C)C)[C@@H](C)O)C(C)C)[C@@H](C)CC with HLA-DR DRB5*0101 (DR51) (Homo sapiens, UniProt P01903+Q30154) (enter value)
≥ 100 µM

====

Target: HLA-DR DRB1*0101 (DR1) (Homo sapiens, UniProt P01903+P01911, A100R/D57E/F55L/F60I/F76Y/I96L/L162R/M171V/P40L/Q125E/R42F/V115G/Y59C)
Assay: biochemical
Format: binding
Details: DRB1 *0101
experimentalReadout: IC50 (nM)
Answer format: numeric, nM implied, no suffix.

Please review the following examples before continuing.
CC[C@H](C)[C@H](NC(=O)[C@@H](NC(=O)[C@H](Cc1c[nH]cn1)NC(=O)[C@@H](N)CC(C)C)C(C)C)C(=O)N[C@@H](CO)C(=O)N[C@@H](CC(N)=O)C(=O)N[C@@H](CC(=O)O)C(=O)N[C@H](C(=O)N[C@@H](CS)C(=O)N[C@@H](C)C(=O)N[C@@H](CCC(N)=O)C(=O)N[C@H](C(=O)N[C@@H](Cc1c[nH]cn1)C(=O)N1CCC[C@H]1C(=O)N[C@@H](CCC(N)=O)C(=O)O)C(C)C)C(C)C; 789
CC[C@H](C)[C@H](NC(=O)[C@H](CO)NC(=O)[C@H](CC(N)=O)NC(=O)[C@H](C)NC(=O)[C@H](CC(C)C)NC(=O)[C@H](CCC(=O)O)NC(=O)[C@H](Cc1ccccc1)NC(=O)[C@@H](NC(=O)[C@H](CCSC)NC(=O)CN)C(C)C)C(=O)N[C@H](C(=O)N[C@@H](CC(C)C)C(=O)N1CCC[C@H]1C(=O)N[C@@H](Cc1ccccc1)C(=O)N[C@@H](CC(=O)O)C(=O)O)C(C)C; 15

Param item = CSCC[C@H](NC(=O)[C@H](CC(C)C)NC(=O)[C@H](CC(=O)O)NC(=O)[C@@H](N)Cc1c[nH]cn1)C(=O)N[C@@H](CC(C)C)C(=O)N[C@@H](CC(C)C)C(=O)N[C@@H](CCCNC(=N)N)C(=O)N[C@@H](CC(C)C)C(=O)N[C@@H](CO)C(=O)N[C@@H](CCC(=O)O)C(=O)N1CCC[C@H]1C(=O)N[C@@H](C)C(=O)N[C@@H](CCC(=O)O)C(=O)N[C@@H](CC(C)C)C(=O)N[C@H](C(=O)O)[C@@H](C)O ; retrieve measured IC50.
62

Param item = CC[C@H](C)[C@H](NC(=O)[C@H](Cc1c[nH]cn1)NC(=O)[C@H](CCSC)NC(=O)[C@H](CCCCN)NC(=O)[C@@H](NC(=O)[C@H](CCCCN)NC(=O)[C@H](CCC(N)=O)NC(=O)[C@@H](NC(=O)[C@H](CO)NC(=O)[C@H](Cc1ccccc1)NC(=O)[C@H](CC(N)=O)NC(=O)CNC(=O)[C@@H](N)[C@@H](C)O)[C@@H](C)O)C(C)C)C(=O)N[C@@H](Cc1c[nH]cn1)C(=O)N[C@@H](CO)C(=O)O ; retrieve measured IC50.
11200

Param item = CC[C@H](C)[C@H](NC(=O)[C@H](CO)NC(=O)[C@H](CC(=O)O)NC(=O)[C@H](CCCNC(=N)N)NC(=O)[C@H](Cc1ccc(O)cc1)NC(=O)[C@@H](NC(=O)[C@@H](NC(=O)[C@H](Cc1ccccc1)NC(=O)[C@@H](N)CC(C)C)C(C)C)C(C)C)C(=O)N1CCC[C@H]1C(=O)N[C@@H](Cc1c[nH]cn1)C(=O)N[C@@H](C)C(=O)N[C@@H](C)C(=O)N[C@@H](CS)C(=O)N[C@@H](Cc1c[nH]cn1)C(=O)O ; retrieve measured IC50.
131

Cited source: patent US20060079453A1
